# Tested on: SRS-A release from lung fragments
# Run Description: Inhibition of SRS-A release from sensitized guinea pig lung fragments
# Format: cell-based, guinea pig (Hartley strain)
# Condition Set: Cavia porcellus, Table 2B, 3 μM; read-out: Inhibitory activities on SRS-A (%)
Assay Metric: inhibition at 3 µM (%)
Give bare numbers, in %.

Please state, for each entry, its recorded inhibition at 3 µM.
1. CCCC/C=C\CCCCCCCC1=C(OC)C(=O)C=C(OC)C1=O [Test Compound No. 34]
2. COC1=C(CCO)C(=O)C(OC)=C(CCCCCC2=C(OC)C(=O)C(CCO)=C(OC)C2=O)C1=O [Test Compound No. 19]
3. COc1cc(OC(C)=O)c(OC)c(CCCCCc2c(OC)c(OC(C)=O)cc(OC)c2OC(C)=O)c1OC(C)=O [Test Compound No. 37]

3.2
40.6
69.2

Please state, for each entry, its recorded inhibition at 3 µM.
1. CCCCC#CCCCCCCCC1=C(OC)C(=O)C=C(OC)C1=O [compound 31]
2. COC1=CC(=O)C(OC)=C(CCCCCCCCCC#CCCCCCCCCCC2=C(OC)C(=O)C=C(OC)C2=O)C1=O [Test Compound No. 21]
3. CCCCC#CCCCCCC1=C(OC)C(=O)C=C(OC)C1=O [compound 30]
4. CCCC/C=C\CCCCCC1=C(OC)C(=O)C=C(OC)C1=O [Test Compound No. 33]
5. CCCCC#CCCCCCCCCCC1=C(OC)C(=O)C=C(OC)C1=O [Test Compound No. 32]
6. COC1=CC(=O)C(OC)=C(CCCCCC#CCCCCCC2=C(OC)C(=O)C=C(OC)C2=O)C1=O [Test Compound No. 16]

[17, -21.7, 23.8, 19.6, 12.4, 23.4]

Please state, for each entry, its recorded inhibition at 3 µM.
1. COC1=CC(=O)C(OC)=C(COCC2=C(OC)C(=O)C=C(OC)C2=O)C1=O [Test Compound No. 26]
2. COC1=CC(=O)C(OC)=C(CCCCCCCC#CCCCCCCCC2=C(OC)C(=O)C=C(OC)C2=O)C1=O [Test Compound No. 20]
3. COC1=CC(=O)C(OC)=C(CCCCCCCC2=C(OC)C(=O)C=C(OC)C2=O)C1=O [Test Compound No. 11]
4. COC1=CC(=O)C(OC)=C(CCCCCCCCCC2=C(OC)C(=O)C=C(OC)C2=O)C1=O [Test Compound No. 13]
5. COCOc1cc(OC)c(OCOC)c(CCCCCc2c(OC)c(OCOC)cc(OC)c2OCOC)c1OC [Test Compound No. 36]
6. COC1=CC(=O)C(OC)=C(CCCCCC2=C(OC)C(=O)C=C(OC)C2=O)C1=O [Test Compound No. 9]

[10.9, 14.5, 32.5, 22.4, 12.1, 50.3]

State its inhibition at 3 µM on SRS-A release from lung fragments: CCCCC#CCCCC1=C(OC)C(=O)C=C(OC)C1=O [Test Compound No. 35]
64.9

---

# Study System: 5-lipoxygenase (Cavia porcellus, UniProt A0A286X958)
# Construct: endogenous in cells; host or cells: guinea pig (Hartley strain) casein-elicited peritoneal exudate cells, intact cell suspension
# Sequence (A0A286X958 1-674): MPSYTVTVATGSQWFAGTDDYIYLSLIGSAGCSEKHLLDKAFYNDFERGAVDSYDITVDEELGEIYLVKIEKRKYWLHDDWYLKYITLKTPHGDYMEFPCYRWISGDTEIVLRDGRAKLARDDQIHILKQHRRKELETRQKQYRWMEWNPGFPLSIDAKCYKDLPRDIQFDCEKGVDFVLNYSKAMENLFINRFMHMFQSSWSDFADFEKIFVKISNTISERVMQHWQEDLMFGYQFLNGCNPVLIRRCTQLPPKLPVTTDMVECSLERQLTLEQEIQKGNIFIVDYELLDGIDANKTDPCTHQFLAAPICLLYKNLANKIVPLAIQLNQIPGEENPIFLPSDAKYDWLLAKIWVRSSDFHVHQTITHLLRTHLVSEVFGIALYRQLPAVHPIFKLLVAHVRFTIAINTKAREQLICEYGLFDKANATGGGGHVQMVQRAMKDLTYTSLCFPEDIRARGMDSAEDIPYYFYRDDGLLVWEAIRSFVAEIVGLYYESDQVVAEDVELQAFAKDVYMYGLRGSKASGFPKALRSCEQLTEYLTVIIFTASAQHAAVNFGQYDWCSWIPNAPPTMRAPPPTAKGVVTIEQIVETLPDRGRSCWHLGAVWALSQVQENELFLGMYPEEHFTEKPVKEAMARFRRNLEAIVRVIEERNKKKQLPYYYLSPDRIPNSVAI
# Run Description: 5-Lipoxygenase inhibitory activity (conversion of 14C-arachidonic acid to 5-HETE) in guinea pig peritoneal exudate cells
# Type: cell-based, guinea pig (Hartley strain)
# Condition Set: concentration 10^-7 M; read-out: inhibition ratio (%) of 5-lipoxygenase activity
Assay Metric: inhibition at 0.1 µM
Just so you know, I need the unit written after the number.

// known answers, use as guide
>>> result("COC1=CC(=O)C(OC)=C(CCCCCCCCCCC2=C(OC)C(=O)C=C(OC)C2=O)C1=O [Test Compound No. 14]")
"34%"
>>> result("COC1=CC(=O)C(OC)=C(CCCCCCCC2=C(OC)C(=O)C=C(OC)C2=O)C1=O [Test Compound No. 11]")
"44%"
>>> result("COC1=C(C)C(=O)C(OC)=C(CCCCCC2=C(OC)C(=O)C(C)=C(OC)C2=O)C1=O [Test Compound No. 17]")
"13%"

Continue with the next molecule.
What does the record list as inhibition at 0.1 µM for COC1=CC(=O)C(O)=C(CCCCCCC/C=C\CCCCCCCc2cc(O)cc(O)c2)C1=O [Test Compound No. 7] ?
24%
